Data origin, for the record: patent US20220396632A1

List of EC50 values.
# TARGET_DESC: T1, Biotin PSGL-1(42-62) peptide, unmodified (human, C-terminal Lys-biotin)
# T1 construct: Residues 42-62 followed by GGGK-biotin; also called WT; wild-type
# T1 peptide: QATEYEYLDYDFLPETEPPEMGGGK
# METHOD_DESCRIPTION: ELISA, immobilized biotin peptide
# Method: A typical ELISA was performed by coating high binding half-well plates (Corning Cat. #3690) with 3 ug/mL/25 ul per well of biotinylated N-terminal PSGL-1 peptides, which incorporated residues 42 to 62 of the protein, in PBS, pH 7.4, overnight at 4° C. The peptide was unmodified or contained sulfated tyrosine at all 3 tyrosine positions (46, 48, and 51) or at one position (tyr51) (Table 7). PSGL-1 protein or peptide served as a positive control. […]

Illustrative cases are given below, each with its answer.
- BINDER: "09D11 (antibody, IgG4, V domains shown) VH: QVQLVESGGGFIQPGGSLRLSCAASGLTFSNYAMTWVRQAPGKGLEWVSTISGGGGNTYYTDSVKGRFTISRDNSKNTLYLQMNSLKAEDTAVYRCAKGLAAALFDYWGQGTLVTVSS VL: DIVLTQSPDSLPVTPGEPASISCRSSRSLLHSNGHNFLAWYLQKPGQSPHLLIYLGSNRASGVPDRFSGSGSGTDFTLKISRVEAEDVGIYYCMQALQTPITFGQGTRLDIK"
  EC50: "~0.05 nM"
- BINDER: "03E05 (antibody, IgG4, V domains shown) VH: EVKLLESGGDLAQTGGSLRLSCVASGFTFSSYPMSWVRQAPGKGLEWVSAIRRSGATQYADSVKGRFTISRDNSKNTVYLQMNSLRVEDTAVYYCAKGTYDLGQGTLVTVSS VL: DIVMTQTPLSLPVTLGQPASISCRSSQSLVYSDGNTYLNWFHQRPGQSPRRLIYKVSNRDSGVPDRFSGSGSDTEFTLKISRVEAEDVGVYYCMQATHWPLTFGGGTKVEIK"
  EC50: "6.2 nM"

As a next step, examine the binder that follows.
Name the recorded EC50 for 09A02 (antibody, IgG4, V domains shown) VH: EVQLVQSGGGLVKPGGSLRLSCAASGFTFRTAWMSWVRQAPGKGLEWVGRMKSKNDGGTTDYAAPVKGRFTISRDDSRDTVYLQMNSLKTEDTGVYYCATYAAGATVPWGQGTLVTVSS VL: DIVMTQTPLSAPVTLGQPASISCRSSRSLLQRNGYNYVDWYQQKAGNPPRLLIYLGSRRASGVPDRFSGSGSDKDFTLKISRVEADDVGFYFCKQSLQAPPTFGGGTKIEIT .
~500 nM
